Source listed as patent US20230023559A1.

tgt: Kv1.3 potassium channel (Homo sapiens, UniProt P22001)
Sequence (P22001 whole entry): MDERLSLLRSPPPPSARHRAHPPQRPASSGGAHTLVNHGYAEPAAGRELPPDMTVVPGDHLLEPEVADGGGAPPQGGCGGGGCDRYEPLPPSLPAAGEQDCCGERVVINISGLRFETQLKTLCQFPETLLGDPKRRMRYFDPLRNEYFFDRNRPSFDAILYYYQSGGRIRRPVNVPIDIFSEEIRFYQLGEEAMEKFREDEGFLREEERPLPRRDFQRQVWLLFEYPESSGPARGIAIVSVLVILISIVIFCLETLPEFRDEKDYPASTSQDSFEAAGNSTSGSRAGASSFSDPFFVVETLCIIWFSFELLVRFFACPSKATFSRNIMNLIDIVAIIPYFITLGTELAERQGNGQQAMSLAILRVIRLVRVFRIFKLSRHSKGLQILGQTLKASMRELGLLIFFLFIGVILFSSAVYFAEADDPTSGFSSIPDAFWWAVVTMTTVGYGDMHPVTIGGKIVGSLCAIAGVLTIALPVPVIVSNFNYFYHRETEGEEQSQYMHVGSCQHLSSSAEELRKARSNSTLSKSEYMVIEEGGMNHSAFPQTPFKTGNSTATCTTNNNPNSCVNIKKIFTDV
test: Kv1.3 potassium channel blocker activity, automated whole-cell patch clamp (Patchliner)
run conditions: CHO-K1 cells stably expressing Kv1.3; whole cell current inhibition; read-out: Kv1.3_IC50
Description: The assay described below is used to evaluate the disclosed compound's activities as Kv1.3 potassium channel blockers. CHO-K1 cells stably expressing Kv1.3 were grown in DMEM containing 10% heat-inactivated FBS, 1 mM Sodium Pyruvate, 2 mM L-Glutamine and G418 (500 μg/ml). All compounds were dissolved in DMSO at 30 mM. The currents were evoked by applying 100 ms depolarizing pulses from −90 mV (holding potential) to +40 mV were applied with 0.1 Hz frequency. […]
Recorded IC50 for the following molecules

molecule: C[C@H](O)C(=O)N1CCC([C@@H](N)c2cc(Cl)c(Cl)cc2O)CC1
IC50: < 500 nM
//
molecule: Cc1cc(O)c([C@H](N)C2CCN(C(=O)C3CCS(=O)(=O)CC3)CC2)cc1Cl
IC50: < 500 nM
//
molecule: CC1(C)C[C@H]([C@H](N)c2cc(Cl)c(Cl)cc2O)CCN1 (single isomer, unassigned; diastereoisomer 2)
IC50: < 10000 nM
//
molecule: N[C@@H](c1cc(Cl)c(Cl)cc1O)[C@@H]1CCN(C(=O)[C@H](O)CO)C1
IC50: < 10000 nM
//
molecule: N[C@H](c1cc(Cl)c(Cl)cc1O)[C@@H]1CCCN(C(=O)[C@H](O)CO)C1
IC50: > 10000 nM
//
molecule: Nc1cnc(C(=O)N2CCC([C@@H](N)c3cc(Cl)c(Cl)cc3O)CC2)cn1
IC50: < 10000 nM
//
molecule: N[C@@H](c1cc(Cl)c(Cl)cc1O)C1CCN(C(=O)N2CCNCC2)CC1
IC50: < 500 nM
//
molecule: N[C@@H](c1cc(Cl)c(C(F)(F)F)cc1O)C1CCN(C(=O)[C@H](O)CO)CC1
IC50: < 10000 nM
//
molecule: CN(C)C(=O)CN1CCC(C(N)c2cc(Cl)c(Cl)cc2O)CC1 (stereo not shown)
IC50: < 10000 nM
//
molecule: N[C@@H](c1cc(Cl)c(Cl)cc1O)C1CCN(C(=O)[C@H]2CCC(=O)NC2)CC1 (single isomer, unassigned; isomer 1)
IC50: < 500 nM
//
molecule: C[C@@H](N)C(=O)N1CCC(C(N)c2cc(Cl)c(Cl)cc2O)CC1 (stereo partly shown)
IC50: < 500 nM
//
molecule: NC(c1c(O)ccc(Cl)c1Cl)C1CCNCC1 (stereo not shown)
IC50: < 30000 nM
//
molecule: C[C@@H](N)C(=O)N1CCC([C@H](N)c2cc(Cl)c(Cl)cc2O)CC1 (single isomer, unassigned)
IC50: < 10000 nM
//
molecule: N[C@@H](c1cc(Cl)c(Cl)cc1O)C1CCN(c2ccn[nH]2)CC1
IC50: < 10000 nM
//
molecule: COC[C@@H](O)C(=O)N1CCC([C@@H](N)c2cc(Cl)c(Cl)cc2O)CC1
IC50: < 10000 nM
//
molecule: CC(C)(N)C(=O)N1CCC([C@@H](N)c2cc(Cl)c(Cl)cc2O)CC1
IC50: < 500 nM
//
molecule: CN1CC(C(=O)N2CCC([C@@H](N)c3cc(Cl)c(Cl)cc3O)CC2)OCC1=O (stereo partly shown)
IC50: < 500 nM
//
molecule: N[C@@H](c1cc(Cl)c(Cl)cc1O)C1CCN(C(=O)C(O)CO)CC1 (stereo partly shown)
IC50: < 500 nM
//
molecule: N[C@@H](c1cc(Cl)c(Cl)cc1O)C1CCN(C(=O)CO)CC1
IC50: < 500 nM
//
molecule: Cc1cc(O)c([C@H](N)C2CCN(C(=O)c3ccc(=O)[nH]c3)CC2)c(F)c1Cl
IC50: < 500 nM
//
molecule: CN1CC[C@H](C(=O)N2CCC([C@@H](N)c3cc(Cl)c(Cl)cc3O)CC2)C1
IC50: < 500 nM
//
molecule: N[C@@H](c1cc(Cl)c(Cl)cc1O)C1CCN(C(=O)CCO)CC1
IC50: < 500 nM
//
molecule: N[C@@H](c1cc(Cl)c(Cl)cc1O)C1CCN(C(=O)C2CNC(=O)O2)CC1 (stereo partly shown)
IC50: < 500 nM
//
molecule: C[C@@](O)(CO)C(=O)N1CCC([C@@H](N)c2cc(Cl)c(Cl)cc2O)CC1 (single isomer, unassigned; isomer 1)
IC50: < 10000 nM
//
molecule: Cc1cc(O)c([C@H](N)C2CCN(C(=O)c3ccc(=O)[nH]c3)CC2)cc1Cl
IC50: < 500 nM
//
molecule: NC(c1cc(Cl)c(Cl)cc1O)[C@@H]1C[C@@H]2CN(C(=O)[C@H](O)CO)C[C@@H]2C1 (stereo partly shown)
IC50: < 10000 nM
//
molecule: C[C@H](O)[C@@H](N)C(=O)N1CCC([C@@H](N)c2cc(Cl)c(Cl)cc2O)CC1
IC50: < 500 nM
//
molecule: CS(=O)(=O)N1CCC(C(N)c2cc(Cl)c(Cl)cc2O)CC1 (stereo not shown)
IC50: < 10000 nM
